Test system: p190 transduced cells
Assay: MTS viability assay of p190 transduced cells
Format: cell-based, murine
Conditions: Mus musculus; stated as treatment concentration = IC50
pIC50: −log10 of the molar value.
readout_type: pIC50

[[record]]
smiles_input = "Cn1c(=O)n(-c2ccc(C(C)(C)C#N)cc2)c2c3cc(-c4cnc5ccccc5c4)ccc3ncc21"
assay_value = "~8.30"


====

Measured pIC50 by item
Target: PI3K β (Homo sapiens, UniProt P42338)
Sequence (P42338 772-1053 limits assumed, one chain of several): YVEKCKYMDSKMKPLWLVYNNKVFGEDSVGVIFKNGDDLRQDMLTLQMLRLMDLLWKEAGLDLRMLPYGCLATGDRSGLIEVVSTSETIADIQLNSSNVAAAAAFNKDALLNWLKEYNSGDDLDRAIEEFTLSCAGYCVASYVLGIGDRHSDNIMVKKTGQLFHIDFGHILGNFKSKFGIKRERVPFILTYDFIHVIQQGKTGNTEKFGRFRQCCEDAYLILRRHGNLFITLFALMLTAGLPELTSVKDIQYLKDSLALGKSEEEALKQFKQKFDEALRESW
pIC50: −log10 of the molar value.
readout_type: pIC50

[[record]]
smiles_input = "CC(C)n1nc(-c2cc3ccc(O)cc3[nH]2)c2c(N)ncnc21"
assay_value = 5.67

[[record]]
smiles_input = "CC(=O)N1CCC(n2nc(-c3cc4cc(O)ccc4[nH]3)c3c(N)ncnc32)CC1"
assay_value = 4.60

[[record]]
smiles_input = "CC(C)n1nc(-c2cc3cccc(O)c3[nH]2)c2c(N)ncnc21"
assay_value = 5.45


====

Molecular target: PI3K α (Homo sapiens)
Sequence (P42336 765-1051 limits assumed): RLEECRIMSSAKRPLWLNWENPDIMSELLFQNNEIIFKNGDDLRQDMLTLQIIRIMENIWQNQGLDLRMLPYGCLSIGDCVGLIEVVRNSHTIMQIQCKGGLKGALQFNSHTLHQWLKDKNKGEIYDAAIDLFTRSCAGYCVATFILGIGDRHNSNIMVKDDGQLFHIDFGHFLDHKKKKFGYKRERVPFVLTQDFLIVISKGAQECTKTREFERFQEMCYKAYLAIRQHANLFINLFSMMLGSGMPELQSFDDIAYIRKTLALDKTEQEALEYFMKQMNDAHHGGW
Sequence (P27986 whole entry partner): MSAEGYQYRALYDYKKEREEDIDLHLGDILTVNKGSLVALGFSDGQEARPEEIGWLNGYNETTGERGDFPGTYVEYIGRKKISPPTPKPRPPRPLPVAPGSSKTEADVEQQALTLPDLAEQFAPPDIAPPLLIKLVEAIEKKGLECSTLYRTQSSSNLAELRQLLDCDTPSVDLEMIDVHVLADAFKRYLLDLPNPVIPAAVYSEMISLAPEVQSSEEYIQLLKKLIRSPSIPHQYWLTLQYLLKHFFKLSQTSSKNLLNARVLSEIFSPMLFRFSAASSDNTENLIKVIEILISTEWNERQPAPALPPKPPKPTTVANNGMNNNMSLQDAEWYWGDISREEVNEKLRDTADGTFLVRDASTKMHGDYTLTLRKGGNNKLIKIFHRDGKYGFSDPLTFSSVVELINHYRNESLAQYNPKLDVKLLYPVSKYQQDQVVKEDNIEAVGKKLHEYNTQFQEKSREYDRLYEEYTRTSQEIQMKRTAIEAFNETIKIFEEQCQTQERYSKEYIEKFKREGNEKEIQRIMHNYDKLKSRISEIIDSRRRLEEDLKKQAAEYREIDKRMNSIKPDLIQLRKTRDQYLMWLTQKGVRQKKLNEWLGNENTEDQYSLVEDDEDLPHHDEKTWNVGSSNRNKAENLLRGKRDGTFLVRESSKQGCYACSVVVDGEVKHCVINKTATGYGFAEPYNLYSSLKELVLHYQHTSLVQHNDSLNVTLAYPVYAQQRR
Measured IC50 by item
readout_type: IC50 (µM)

[[record]]
smiles_input = "CC(=O)N1CCC(n2nc(-c3cc4cc(O)ccc4[nH]3)c3c(N)ncnc32)CC1"
readout_type = "IC50"
assay_value = 5.75

[[record]]
smiles_input = "CC(C)n1nc(-c2cc3ccc(O)cc3[nH]2)c2c(N)ncnc21"
readout_type = "IC50"
assay_value = 0.279

[[record]]
smiles_input = "CC(C)n1nc(-c2cc3ccccc3[nH]2)c2c(N)ncnc21"
readout_type = "IC50"
assay_value = 11.2


====

Tested on: PC3 cells
Experiment: Inhibition of proliferation of PC3 cells
Assay type: cell-based
Conditions: Homo sapiens, PC-3
readout_type: IC50 (nM)

[[record]]
smiles_input = "CC(C)n1nc(-c2cc3cccc(O)c3[nH]2)c2c(N)ncnc21"
readout_type = "IC50"
assay_value = 38

[[record]]
smiles_input = "CC(=O)N1CCC(n2nc(-c3cc4cc(O)ccc4[nH]3)c3c(N)ncnc32)CC1"
readout_type = "IC50"
assay_value = 11800

[[record]]
smiles_input = "CC(C)n1nc(-c2cc3ccccc3[nH]2)c2c(N)ncnc21"
readout_type = "IC50"
assay_value = 2060

[[record]]
smiles_input = "CC(C)n1nc(-c2cc3ccc(O)cc3[nH]2)c2c(N)ncnc21"
readout_type = "IC50"
assay_value = 1000


====

Target: PI3K δ (Homo sapiens, UniProt O00329)
Construct: Purified kinase domains (e.g. mTor, P110α, P110β, P110γ, P110δ, PI4Kβ, DNA-PK, PKCα, PKCβ1, PKCβII, RET, and JAK2)
Sequence (O00329 745-1027 limits assumed): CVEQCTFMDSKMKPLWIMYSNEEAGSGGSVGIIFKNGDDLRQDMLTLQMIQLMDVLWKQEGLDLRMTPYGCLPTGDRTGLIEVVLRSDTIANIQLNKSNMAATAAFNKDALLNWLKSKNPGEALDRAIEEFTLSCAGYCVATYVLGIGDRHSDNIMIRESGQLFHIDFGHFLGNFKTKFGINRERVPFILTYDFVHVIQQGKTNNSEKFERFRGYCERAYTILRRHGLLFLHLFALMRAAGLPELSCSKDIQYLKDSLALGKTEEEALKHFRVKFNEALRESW
Sequence (P27986 whole entry partner, the tested form may be a part): as the sequence (P27986 whole entry partner) above
Assay: Kinase inhibition assay, PI3K δ
Type: biochemical
readout_type: IC50

[[record]]
smiles_input = "CC(C)n1nc(-c2cc3ccc(O)cc3[nH]2)c2c(N)ncnc21"
assay_value = "395 nM"


Provenance of the data: patent US9629843B2
